# SYSTEM_TESTED: human Cot/Tpl2 kinase (Homo sapiens, UniProt P41279)
# Construct: human Cot/Tpl2 kinase construct encoding residues 30-398; 6His (N); made in house; host or cells: Sf9 insect cells, baculovirus system (BD Biosciences)
# Sequence (P41279 30-398): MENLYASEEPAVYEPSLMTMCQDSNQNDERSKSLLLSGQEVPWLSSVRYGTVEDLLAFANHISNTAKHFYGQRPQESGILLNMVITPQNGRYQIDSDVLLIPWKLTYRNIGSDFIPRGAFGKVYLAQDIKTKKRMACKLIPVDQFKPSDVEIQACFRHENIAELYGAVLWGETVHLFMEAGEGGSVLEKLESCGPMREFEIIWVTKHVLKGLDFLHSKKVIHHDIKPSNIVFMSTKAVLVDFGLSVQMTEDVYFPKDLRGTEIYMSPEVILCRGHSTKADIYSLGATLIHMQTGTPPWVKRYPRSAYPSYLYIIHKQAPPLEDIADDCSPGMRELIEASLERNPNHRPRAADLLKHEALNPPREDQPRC
# METHOD_NOTES: Tpl2/Cot kinase assay: GST-MEK1 phosphorylation detected by ELISA (DELFIA Eu)
# Type: biochemical
# MEASUREMENT_CONTEXT: 0.4 nM Tpl2, 35 nM GST-MEK1, 50 uM ATP, 1 h at 30° C.
pIC50: −log10 of the molar value.
ENDPOINT_NAME: pIC50

COc1ccc(CNc2cc(Cl)c3ncc(C#N)c(Nc4ccc(F)c(Cl)c4)c3c2)cc1OCCN1CCOCC1 ... 7.08
N#Cc1cnc2ccc(NCc3ccc(-n4ccnc4)cc3)cc2c1Nc1ccc(F)c(Cl)c1 ... 5.89
N#Cc1cnc2ccc(NCc3ccc(O)c(Cl)c3)cc2c1Nc1ccc(F)c(Cl)c1 ... 6.21
C[C@@H](Nc1ccc2ncc(C#N)c(Nc3ccc(F)c(Cl)c3)c2c1)c1ccccn1 ... 7.08
N#Cc1cnc2c(CCC(=O)CO)cc(NCc3cnc[nH]3)cc2c1Nc1ccc(F)c(Cl)c1 ... 6.82
N#Cc1cnc2c(Cl)cc(NCc3cn(CC(=O)NCc4ccccn4)nn3)cc2c1Nc1ccc(F)c(Cl)c1 ... 8.25
COc1c(C)c[n+]([O-])c(CNc2cc(Cl)c3ncc(C#N)c(Nc4ccc(F)c(Cl)c4)c3c2)c1C ... 7.18
N#Cc1cccc(CNc2ccc3ncc(C#N)c(Nc4ccc(F)c(Cl)c4)c3c2)c1 ... 6.70

(1) N#Cc1cnc2c(Br)cc(NCc3ccccn3)cc2c1Nc1ccc(F)c(Cl)c1
(2) CC(C)c1nc[nH]c1CNc1cc(Cl)c2ncc(C#N)c(Nc3ccc(F)c(Cl)c3)c2c1
(3) CS(=O)(=O)c1cccc(CNc2cc(Cl)c3ncc(C#N)c(Nc4ccc(F)c(Cl)c4)c3c2)c1
(4) N#Cc1cnc2c(O)cc(NCc3cnc[nH]3)cc2c1Nc1ccc(F)c(Cl)c1
(5) CC(C)c1nc[nH]c1CNc1cc(Br)c2ncc(C#N)c(Nc3ccc(F)c(Cl)c3)c2c1
Q) Put the molecules in ascending order of pIC50. Give the labels in the order specified.
A) 4, 5, 1, 3, 2
(4: 4.95, 5: 6.89, 1: 7.12, 3: 7.33, 2: 7.80)

###

# SYSTEM_TESTED: human Cot/Tpl2 kinase (Homo sapiens, UniProt P41279)
# Construct: human Cot/Tpl2 kinase construct encoding residues 30-398; 6His (N); made in house; host or cells: Sf9 insect cells, baculovirus system (BD Biosciences)
# METHOD_NOTES: Tpl2/Cot kinase assay: GST-MEK1 phosphorylation detected by ELISA (DELFIA Eu)
# Assay type: biochemical
# MEASUREMENT_CONTEXT: Tpl2/Cot kinase, GST-MEK1 substrate, 50 uM ATP, 1 h at 30° C.; Table 2
ENDPOINT_NAME: IC50 (nM)

N#Cc1cnc2c(Cl)cc(NCC3CCCN(C(=O)CCl)C3)cc2c1Nc1ccc(F)c(Cl)c1 (stereo not shown) [Example 924] ... 1320
N#Cc1cnc2c(Cl)cc(NCc3cn(Cc4cncc(C(O)(C(F)(F)F)C(F)(F)F)c4)nn3)cc2c1Nc1ccc(F)c(Cl)c1 [Example 1025] ... 910

(a) CN(C)CCn1cc(CNc2cc(Cl)c3ncc(C#N)c(NCC(F)(F)F)c3c2)nn1 [Example 984]
(b) CCN1C2CCC1CC(n1cc(CNc3cc(Cl)c4ncc(C#N)c(Nc5ccc(F)c(Cl)c5)c4c3)nn1)C2 (stereo not shown) [Example 1005]
(c) CCNC(=O)N1CCN(CCn2cc(CNc3cc(Cl)c4ncc(C#N)c(Nc5ccc(F)c(Cl)c5)c4c3)nn2)CC1 [Example 962]
(d) N#Cc1cnc2c(Cl)cc(NCc3cn(C4CCCN(CC(F)(F)F)CC4)nn3)cc2c1Nc1ccc(F)c(Cl)c1 (stereo not shown) [Example 1009]
Q) Write the entries in order, lowest recorded IC50 first. Form entry: ranked labels (order as requested).
A) c, b, d, a
(c: 23 nM, b: 41 nM, d: 270 nM, a: 1090 nM)

###

# SYSTEM_TESTED: human Cot/Tpl2 kinase (Homo sapiens, UniProt P41279)
# Construct: human Cot/Tpl2 kinase construct encoding residues 30-398; 6His (N); made in house; host or cells: Sf9 insect cells, baculovirus system (BD Biosciences)
# METHOD_NOTES: Tpl2/Cot kinase assay: GST-MEK1 phosphorylation detected by ELISA (DELFIA Eu)
# Assay type: biochemical
# MEASUREMENT_CONTEXT: Tpl2/Cot kinase, GST-MEK1 substrate, 50 uM ATP
ENDPOINT_NAME: IC50 (µM)

See these solved cases before continuing.
CCN1CC(CCn2cc(CNc3cc(Cl)c4ncc(C#N)c(Nc5ccc(F)c(Cl)c5)c4c3)nn2)N(c2ccccc2)C1=S (stereo not drawn) [Example 792] ... 0.13
CC(C)(C)OC(=O)N1CCCC1Cn1cc(CNc2cc(Br)c3ncc(C#N)c(Nc4ccc(F)c(Cl)c4)c3c2)nn1 (stereo not drawn) [Example 717] ... 0.27
N#Cc1cnc2c(Cl)cc(NCc3cn(Cc4cccnc4)cn3)cc2c1Nc1ccc(F)c(Cl)c1 [Example 726] ... 0.007

(a) N#Cc1cnc2c(Cl)cc(NCC(=O)Nc3ccncc3)cc2c1Nc1ccc(F)c(Cl)c1 [Example 774]
(b) CN(C)CC(c1ccccc1)n1cc(CNc2cc(Br)c3ncc(C#N)c(Nc4ccc(F)c(Cl)c4)c3c2)nn1 (stereo not drawn) [Example 739]
Q) Please indicate which item has the smaller measured IC50: a versus b Lab note: record the label of whichever item you select.
A) b
(b: 0.093 µM, a: 2.4 µM)

###

# SYSTEM_TESTED: human Cot/Tpl2 kinase (Homo sapiens, UniProt P41279)
# Construct: human Cot/Tpl2 kinase construct encoding residues 30-398; 6His (N); made in house; host or cells: Sf9 insect cells, baculovirus system (BD Biosciences)
# METHOD_NOTES: Tpl2/Cot kinase assay: GST-MEK1 phosphorylation detected by ELISA (DELFIA Eu)
# Format: biochemical
# MEASUREMENT_CONTEXT: Tpl2/Cot kinase, GST-MEK1 substrate, 50 uM ATP
ENDPOINT_NAME: IC50 (nM)

N#Cc1cnc2c(Br)cc(NCc3cn(CCCN4CCCNCC4)nn3)cc2c1Nc1ccc(F)c(Cl)c1 ... 43

(A) N#Cc1cnc2c(Cl)cc(NCc3cn(CCN4CCOCC4)cn3)cc2c1Nc1ccc(F)c(Cl)c1
(B) N#Cc1cnc2c(Cl)cc(NCc3cn(CCCNC(=O)C4CC4)nn3)cc2c1Nc1ccc(F)c(Cl)c1
(C) N#Cc1cnc2c(Cl)cc(NCc3cn(CCCN4C(=O)c5ccccc5C4=O)nn3)cc2c1Nc1ccc(F)c(Cl)c1
Q) Arrange the 3 compounds by rising IC50, starting with the smallest. Reply with the labels, ordered as the question asks.
A) B, A, C

###

# SYSTEM_TESTED: human Cot/Tpl2 kinase (Homo sapiens)
# Construct: human Cot/Tpl2 kinase construct encoding residues 30-398; 6His (N); made in house; host or cells: Sf9 insect cells, baculovirus system (BD Biosciences)
# METHOD_NOTES: Tpl2/Cot kinase assay: GST-MEK1 phosphorylation detected by ELISA (DELFIA Eu)
# Type: biochemical
# MEASUREMENT_CONTEXT: 0.4 nM Tpl2, 35 nM GST-MEK1, 50 uM ATP, 1 h at 30° C.
ENDPOINT_NAME: IC50 (nM)

(A) CC(Nc1ccc2ncc(C#N)c(Nc3ccc(F)c(Cl)c3)c2c1)c1cnccn1 (stereo not drawn)
(B) COc1cc(NCc2cnc[nH]2)cc2c(Nc3ccc(F)c(Cl)c3)c(C#N)cnc12
(C) CN(C)C(=O)Cn1ccnc1CNc1ccc2ncc(C#N)c(Nc3ccc(F)c(Cl)c3)c2c1
Q) // sort listed items: IC50 descending Write the labels out in the order the request specifies.
A) A, C, B
(A: 830 nM, C: 20 nM, B: 13 nM)

###

# SYSTEM_TESTED: human Cot/Tpl2 kinase (Homo sapiens)
# Construct: human Cot/Tpl2 kinase construct encoding residues 30-398; 6His (N); made in house; host or cells: Sf9 insect cells, baculovirus system (BD Biosciences)
# METHOD_NOTES: Tpl2/Cot kinase assay: GST-MEK1 phosphorylation detected by ELISA (DELFIA Eu)
# Format: biochemical
# MEASUREMENT_CONTEXT: Tpl2/Cot kinase, GST-MEK1 substrate, 50 uM ATP
ENDPOINT_NAME: IC50 (nM)

N#Cc1cnc2c(Cl)cc(NCc3cn(CC(=O)NC4CC4)nn3)cc2c1Nc1ccc(F)c(Cl)c1 ... 1.3
N#Cc1cnc2c(Cl)cc(NCc3cn(CCCO)nn3)cc2c1Nc1ccc(F)c(Cl)c1 ... 3.6
N#Cc1cnc2c(Br)cc(NCc3cn(CCc4ccncc4)nn3)cc2c1Nc1ccc(F)c(Cl)c1 ... 1.3
N#Cc1cnc2c(Br)cc(NCc3cn(Cc4ccccn4)nn3)cc2c1Nc1ccc(F)c(Cl)c1 ... 33
N#Cc1cnc2c(Cl)cc(NCc3cn(C[C@H]4CCCN4)nn3)cc2c1Nc1ccc(F)c(Cl)c1 ... 8.4

(A) N#Cc1cnc2c(Cl)cc(NC3CCCC3n3cc(CCO)nn3)cc2c1Nc1ccc(F)c(Cl)c1 (stereo not drawn)
(B) CC(C)C(=O)NCCCn1cc(CNc2cc(Cl)c3ncc(C#N)c(Nc4ccc(F)c(Cl)c4)c3c2)nn1
(C) CC(c1ccccc1)n1cc(CNc2cc(Cl)c3ncc(C#N)c(Nc4ccc(F)c(Cl)c4)c3c2)nn1 (stereo not drawn)
Q) Descending sort on IC50 required. A ranking is expressed here by listing the labels in the requested order.
A) C, A, B

(I) N#Cc1cnc2c(Br)cc(NCc3cn(CCS(=O)(=O)C4CCCC4)nn3)cc2c1Nc1ccc(F)c(Cl)c1
(II) CC(C)(C)OC(=O)N1CCC[C@@H]1Cn1cc(CNc2cc(Cl)c3ncc(C#N)c(Nc4ccc(F)c(Cl)c4)c3c2)nn1
Q) Of the two listed items, which has the higher IC50? First: I Second: II Answer = label.
A) II
(II: 160 nM, I: 53 nM)

(I) N#Cc1cnc2c(Br)cc(NCc3cn(CCC4CCNCC4)nn3)cc2c1Nc1ccc(F)c(Cl)c1
(II) CC(C)N1CCC(Cn2cc(CNc3cc(Br)c4ncc(C#N)c(Nc5ccc(F)c(Cl)c5)c4c3)nn2)CC1
Q) Please tell me which of the two, I or II , has the higher reported IC50 value. Your choice should be expressed through its label.
A) I
(I: 90 nM, II: 29 nM)
